This collection of values is drawn from ChEMBL document CHEMBL1135444.

Human immunodeficiency virus type 1 protease (Human immunodeficiency virus 1) IC50 data
The reply should consist of the numeric value with the unit placed after it.

Below are worked cases with known answers.
{"Item smiles": "Cc1cccc(C[C@H](NC(=O)c2c(C)ccc(O)c2C)[C@H](O)C(=O)N2C[C@@H](Cl)C[C@H]2C(=O)NC(C)(C)C)c1", "Quantity": "IC50", "Reported result": "3.4 nM"}
{"Item smiles": "CC(C)(C)NC(=O)[C@@H]1C[C@H](Cl)CN1C(=O)[C@@H](O)[C@H](Cc1ccccc1)NC(=O)c1ccccc1", "Quantity": "IC50", "Reported result": "26 nM"}
{"Item smiles": "Cc1ccccc1C[C@H](NC(=O)c1c(C)ccc(O)c1C)[C@H](O)C(=O)N1C[C@@H](Cl)C[C@H]1C(=O)NC(C)(C)C", "Quantity": "IC50", "Reported result": "34.3 nM"}

Let us move to another entry and its IC50.
Query: For Cc1ccccc1C[C@H](NC(=O)c1ccc(C)c(O)c1C)[C@H](O)C(=O)N1C[C@@H](Cl)C[C@H]1C(=O)NC(C)(C)C , write its IC50.
Result: 49.9 nM

###

# Measured on: UniProt:Q72874
Quantity: pIC50
Recall that pIC50 is obtained by taking minus log10 of the concentration measured in molar.

Below are worked cases with known answers.
{"Item smiles": "Cc1ccc(O)c(C)c1C(=O)N[C@@H](Cc1ccccc1)[C@H](O)C(=O)N1C[C@@H](Cl)C[C@H]1C(=O)NC(C)(C)C", "pIC50": 8.60}
{"Item smiles": "Cc1ccc(C(=O)N[C@@H](Cc2ccc3ccccc3c2)[C@H](O)C(=O)N2C[C@@H](Cl)C[C@H]2C(=O)NC(C)(C)C)c(C)c1O", "pIC50": 8.49}

Query: For Cc1c(O)cc(F)cc1C(=O)N[C@@H](Cc1ccccc1)[C@H](O)C(=O)N1C[C@@H](Cl)C[C@H]1C(=O)NC(C)(C)C , write its pIC50.
Result: 8.77

Query: For Cc1cccc(C)c1C(=O)N[C@@H](Cc1ccccc1)[C@H](O)C(=O)N1C[C@@H](Cl)C[C@H]1C(=O)NC(C)(C)C , write its pIC50.
Result: 8.44

###

Human immunodeficiency virus type 1 protease (Human immunodeficiency virus 1) IC50 data
Express your answer in nM, writing the number without its unit.

Below are worked cases with known answers.
{"Item smiles": "CC(C)(C)NC(=O)[C@@H]1C[C@H](Cl)CN1C(=O)[C@@H](O)[C@H](Cc1ccccc1)NC(=O)c1ccccc1I", "Measured on": "Human immunodeficiency virus type 1 protease (Human immunodeficiency virus 1)", "Quantity": "IC50", "Unit name": "nM", "Reported result": 14}
{"Item smiles": "CC(C)(C)NC(=O)[C@@H]1C[C@H](Cl)CN1C(=O)[C@@H](O)[C@H](Cc1ccccc1)NC(=O)c1ccccc1Cl", "Measured on": "Human immunodeficiency virus type 1 protease (Human immunodeficiency virus 1)", "Quantity": "IC50", "Unit name": "nM", "Reported result": 11}
{"Item smiles": "CC(C)(C)NC(=O)[C@@H]1C[C@H](Cl)CN1C(=O)[C@@H](O)[C@H](Cc1ccccc1)NC(=O)c1ccccc1Br", "Measured on": "Human immunodeficiency virus type 1 protease (Human immunodeficiency virus 1)", "Quantity": "IC50", "Unit name": "nM", "Reported result": 12}

Let us move to another entry and its IC50.
Query: For Cc1ccc(O)c(C)c1C(=O)N[C@@H](Cc1ccc(C(F)(F)F)cc1)[C@H](O)C(=O)N1C[C@@H](Cl)C[C@H]1C(=O)NC(C)(C)C , write its IC50.
Result: 3.9
